Tested on: Proteus mirabilis ATCC 4675
assayComment: "In vitro" MIC, Proteus mirabilis
Type: cell-based
experimentalSetup: ATCC4675; Proteus mirabilis ATCC 4675; dextrose agar, 37° C., 20 hours; read-out: "In vitro" MIC
valueKind: MIC

> print(dat)
                                 smilesdata                  studysystem   obsvalue
1  Cn1cc(C(=O)O)c(=O)c2cc(F)c(-n3cccc3)cc21  Proteus mirabilis ATCC 4675    4 µg/mL
2  CNn1cc(C(=O)O)c(=O)c2cc(F)c(-n3cccc3)cc21  Proteus mirabilis ATCC 4675    2 µg/mL
3  O=C(O)c1cn(CCO)c2cc(-n3cccc3)c(F)cc2c1=O  Proteus mirabilis ATCC 4675    1 µg/mL
4  CCCn1cc(C(=O)O)c(=O)c2cc(F)c(-n3cccc3)cc21  Proteus mirabilis ATCC 4675   16 µg/mL
5  C=Cn1cc(C(=O)O)c(=O)c2cc(F)c(-n3cccc3)cc21  Proteus mirabilis ATCC 4675    2 µg/mL
6  O=C(O)c1cn(CC2CC2)c2cc(-n3cccc3)c(F)cc2c1=O  Proteus mirabilis ATCC 4675   32 µg/mL
7  O=C(O)c1cn(CCF)c2cc(-n3cccc3)c(F)cc2c1=O  Proteus mirabilis ATCC 4675    1 µg/mL
8  O=C(O)c1cn(C2CC2)c2cc(-n3cccc3)c(F)cc2c1=O  Proteus mirabilis ATCC 4675  0.5 µg/mL
9  CCNn1cc(C(=O)O)c(=O)c2cc(F)c(-n3cccc3)cc21  Proteus mirabilis ATCC 4675    8 µg/mL

----------
MIC listing for selected compounds.
Test system: Escherichia coli R-1513
assayComment: "In vitro" MIC, Escherichia coli R-1513
Type: cell-based
experimentalSetup: R1513; Escherichia coli R-1513; dextrose agar, 37° C., 20 hours; read-out: "In vitro" MIC
valueKind: MIC (µg/mL)

> print(dat)
                                 smilesdata  unitstext  obsvalue
1  CNn1cc(C(=O)O)c(=O)c2cc(F)c(-n3cccc3)cc21      µg/mL       0.5
2  C=Cn1cc(C(=O)O)c(=O)c2cc(F)c(-n3cccc3)cc21      µg/mL         1
3  O=C(O)c1cn(CCF)c2cc(-n3cccc3)c(F)cc2c1=O      µg/mL       0.5
4  CCCn1cc(C(=O)O)c(=O)c2cc(F)c(-n3cccc3)cc21      µg/mL         8
5  CCNn1cc(C(=O)O)c(=O)c2cc(F)c(-n3cccc3)cc21      µg/mL         4
6  O=C(O)c1cn(CC2CC2)c2cc(-n3cccc3)c(F)cc2c1=O      µg/mL         8
7  O=C(O)c1cn(C2CC2)c2cc(-n3cccc3)c(F)cc2c1=O      µg/mL      0.12
8  Cn1cc(C(=O)O)c(=O)c2cc(F)c(-n3cccc3)cc21      µg/mL         4
9  O=C(O)c1cn(CCO)c2cc(-n3cccc3)c(F)cc2c1=O      µg/mL         1

----------
Tested on: Streptococcus faecalis ATCC 10541
assayComment: "In vitro" MIC, Streptococcus faecalis
Assay type: cell-based
experimentalSetup: Enterococcus faecalis, ATCC10541; Streptococcus faecalis ATCC 10541; dextrose agar, 37° C., 20 hours; read-out: "In vitro" MIC
MIC listing for selected molecules.
valueKind: MIC (µg/mL)

> print(dat)
                                 smilesdata  obsvalue
1  CCCn1cc(C(=O)O)c(=O)c2cc(F)c(-n3cccc3)cc21         8
2  O=C(O)c1cn(C2CC2)c2cc(-n3cccc3)c(F)cc2c1=O      0.25
3  CCNn1cc(C(=O)O)c(=O)c2cc(F)c(-n3cccc3)cc21         4
4  O=C(O)c1cn(CCO)c2cc(-n3cccc3)c(F)cc2c1=O         1
